- EXPERIMENTAL DETAILS: Rat pharmacokinetics
- CONDITION NOTES: male, Sprague Dawley, in vivo, iv, 5 mg/kg
ASSAY METRIC: Vd (L/kg)

>>> observed_value("Cc1n[nH]c2ncc(-c3cncc(NC4CCN(C)CC4)n3)cc12")
15.2

----------
- EXPERIMENTAL DETAILS: physchem
ASSAY METRIC: solubility (µM)

>>> observed_value("Cc1n[nH]c2ncc(-c3cncc(NC4CCN(C)CC4)n3)cc12.Cl [13 HCl]")
50
>>> observed_value("Cc1n[nH]c2ncc(-c3cncc(NC4CCN(C)CC4)n3)cc12 [Compound 13]")
50
>>> observed_value("C=C(C)[C@H]1Cc2c(ccc3c2O[C@@H]2COc4cc(OC)c(OC)cc4[C@@H]2C3=O)O1 [Rotenone, reference compound]")
1
